- measured.on: HTRA2, O43464
- Sequence (O43464 355-458): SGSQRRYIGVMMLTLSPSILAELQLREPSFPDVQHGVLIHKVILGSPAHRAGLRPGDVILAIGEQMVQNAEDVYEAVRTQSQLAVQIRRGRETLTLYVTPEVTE
- procedure.summary: holdup assay
- Parameters: key: below the threshold = too weak to quantify, mostly under pKd 3.1 to 4
- experimental.context: plain residues with an end cap or a label only (N-terminal biotin on a linker: ado-ado)
measurement.kind: pKd

- binder: "PDSYHRRDFW [U2AF2, P26368]"
  value: "below the threshold"
- binder: "KIEDVEITLV [FCHSD2, O94868]"
  value: 3.93
- binder: "NNMAFETTHF [SLC5A12, Q1EHB4]"
  value: "below the threshold"
- binder: "NISARRFTLC [FAM167B, Q9BTA0]"
  value: 4.44
- binder: "SGDGKTSVWI [GJC1, P36383]"
  value: 4.25
- binder: "RSPVATATSC [DUSP5, Q16690]"
  value: "below the threshold"
- binder: "LVEEEEPMNL [HDAC7, Q8WUI4]"
  value: "below the threshold"
- binder: "EAVTVESTSL [SLC22A11, Q9NSA0]"
  value: "below the threshold"
- binder: "SRPHTNETSL [MCC, P23508]"
  value: "below the threshold"
- binder: "NTALVESEDL [PALLS, Q8WX93;Q8WX93-1]"
  value: "below the threshold"
- binder: "MQILSKPEFI [NPSR1, Q6W5P4]"
  value: 3.72
- binder: "HYPASPDSWV [CTNND2, Q9UQB3]"
  value: 4.12
- binder: "ATKDKKITTV [EXOC4, Q96A65]"
  value: "below the threshold"
- binder: "AHGSTRDQSI [KCNB1, Q14721]"
  value: "below the threshold"
- binder: "PKSNSSKEYV [CLDN7, O95471]"
  value: "below the threshold"
- binder: "THHRKIHTRV [ZNF599, Q96NL3]"
  value: "below the threshold"
